Exercise: for every item that follows, state its recorded kon.
- tgt: T1, human tenascin-C rCd4-His-FBG (rat; human, UniProt P05540 207-392, limits assumed)
- T1 construct: domain: domains 3 and 4; C-terminal FBG fusion; biotinylated in the ELISA and HTRF screens; also called Hu TNC; human TNC rCd4-His-FBG; not shown: 6His tag
- T1 sequence (chain (part 1 of 2)): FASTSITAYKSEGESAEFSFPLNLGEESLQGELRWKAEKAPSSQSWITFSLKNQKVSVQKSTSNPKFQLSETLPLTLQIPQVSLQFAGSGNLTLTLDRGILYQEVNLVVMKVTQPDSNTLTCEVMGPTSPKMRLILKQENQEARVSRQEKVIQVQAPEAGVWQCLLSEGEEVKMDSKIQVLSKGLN
- T1 sequence (chain (part 2 of 2)): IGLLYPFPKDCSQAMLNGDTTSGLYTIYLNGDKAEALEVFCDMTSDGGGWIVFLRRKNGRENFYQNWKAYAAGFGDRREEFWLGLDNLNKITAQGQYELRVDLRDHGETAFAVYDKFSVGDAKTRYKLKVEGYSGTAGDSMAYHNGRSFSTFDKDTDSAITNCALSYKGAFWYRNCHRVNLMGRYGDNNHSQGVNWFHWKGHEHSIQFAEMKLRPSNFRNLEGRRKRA
- test_protocol: SPR, captured Fab, 25 C
# do not omit the unit; it follows the number

So for Fab B12 (Fab, V domains shown, monomeric Fab) VH: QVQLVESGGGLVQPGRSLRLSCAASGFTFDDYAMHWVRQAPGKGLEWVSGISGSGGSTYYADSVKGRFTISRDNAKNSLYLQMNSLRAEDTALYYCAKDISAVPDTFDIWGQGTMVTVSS VL: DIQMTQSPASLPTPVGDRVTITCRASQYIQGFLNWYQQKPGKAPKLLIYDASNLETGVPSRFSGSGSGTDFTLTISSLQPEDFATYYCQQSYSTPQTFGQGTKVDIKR , the logged kon turned out to be 2.66e+06 M⁻¹ s⁻¹

So for Fab D8 (Fab, V domains shown, monomeric Fab) VH: EVQLVQSGAEVKKPGASVKVSCKASGYTFTSYGISWVRQAPGQGLEWMGWISAYNGNTNYAQKLQGRVTMTTDTSTSTAYMELRSLRSDDTAVYYCARNQDSSSDYWGQGTLVTVSS VL: DIQMTQSPASLPTSVGDRVTITCRASQYIQGFLNWYQQKPGKAPKLLIYDASNLETGVPSRFSGSGSGTDFTLTISSLQPEDFATYYCQQSYSTLQTFGQGTKVDIKR , the logged kon turned out to be 1.54e+06 M⁻¹ s⁻¹

So for Fab 2A5 (Fab, V domains shown, monomeric Fab) VH: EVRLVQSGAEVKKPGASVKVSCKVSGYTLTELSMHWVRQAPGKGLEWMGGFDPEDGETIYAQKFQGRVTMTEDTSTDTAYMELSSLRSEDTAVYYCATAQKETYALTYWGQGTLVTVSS VL: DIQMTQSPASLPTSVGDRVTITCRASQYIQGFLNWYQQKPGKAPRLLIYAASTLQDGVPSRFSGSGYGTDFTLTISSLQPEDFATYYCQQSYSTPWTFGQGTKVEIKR , the logged kon turned out to be 496000 M⁻¹ s⁻¹

So for Fab F3 (Fab, V domains shown, monomeric Fab) VH: EVQLLESGGGLVQPGGSLRLSCAASGFTFSSYGMHWVRQAPGKGLEWVAVISYDGSNKYYADSVKGRFTISRGNSKNTLYLQMNSLKAEDTAVYYCAREGYDQLFSAESNAFDIWGQGTLVTVSS VL: NFMLAQPHSVSESPGKTVTISCTRSSGSIASYFVQWFQQRPGSAPTAVIYEDNQRPSGVPDRFSGSIDSSSNSASLTISGLKTEDEADYYCQSYDSSNWVFGGGTKVTVLG , the logged kon turned out to be 126000 M⁻¹ s⁻¹

All figures here come from patent US20170306005A1.
